B1: Hairpin Ribozyme (parent)
chain: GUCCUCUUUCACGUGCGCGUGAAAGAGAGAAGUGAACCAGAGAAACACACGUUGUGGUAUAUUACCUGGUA

variants of: B1; assay: self-cleavage, relative activity (ratio to wild type); higher = more cleavage; co-transcriptional
Reported self-cleavage is given for each of the following variants.
API note: the answer field is a bare number with no unit suffix.

C16G G42A; 0.251
U7G U14C; 0.701
U9A A11C; 0.478
U58G; 0.788
G32A A44G; 0.143
C65A A71C; 1.07

For the variant shown here, C65U U70G , give the reported self-cleavage.
0.148

For the variant shown here, C6U C18U , give the reported self-cleavage.
0.82

For the variant shown here, A11G A23C , give the reported self-cleavage.
0.596

For the variant shown here, U2C G34U , give the reported self-cleavage.
0.316
